Reduction of NO level compared to LPS treated cells listing for selected compounds.
Tested on: BV-2 cells
Assay: Griess assay (NO/nitrite level) in LPS-treated BV-2 cells
Assay type: cell-based, murine
Details: 6.25 μM, 1 h pretreatment, then 1 μg/ml LPS for 24 h
Metric: Reduction of NO level compared to LPS treated cells

| Sample smiles | Value |
| --- | --- |
| Cc1ccc2oc(-c3ccc(OCCCCCCN4CCCCC4)cc3)cc(=O)c2c1 | ~30% |
| COc1cc(/C=C/C(=O)c2ccc(OCCCN3CCCCC3)cc2)cc(OC)c1OC.Cl | 61% |
| COc1ccc(/C=C/C(=O)c2ccc(OCCCN3CCCCC3)cc2)cc1OC.Cl | ~30% |
| COc1ccc(/C=C/C(=O)c2ccc(OCCCN3CCCCC3)cc2)cc1.Cl | ~30% |
